Where do the numbers come from? From ChEMBL document CHEMBL3351359.

- systemUnderTest: DNA topoisomerase 1 (Homo sapiens) (UniProt P11387)
- Sequence (P11387 whole entry): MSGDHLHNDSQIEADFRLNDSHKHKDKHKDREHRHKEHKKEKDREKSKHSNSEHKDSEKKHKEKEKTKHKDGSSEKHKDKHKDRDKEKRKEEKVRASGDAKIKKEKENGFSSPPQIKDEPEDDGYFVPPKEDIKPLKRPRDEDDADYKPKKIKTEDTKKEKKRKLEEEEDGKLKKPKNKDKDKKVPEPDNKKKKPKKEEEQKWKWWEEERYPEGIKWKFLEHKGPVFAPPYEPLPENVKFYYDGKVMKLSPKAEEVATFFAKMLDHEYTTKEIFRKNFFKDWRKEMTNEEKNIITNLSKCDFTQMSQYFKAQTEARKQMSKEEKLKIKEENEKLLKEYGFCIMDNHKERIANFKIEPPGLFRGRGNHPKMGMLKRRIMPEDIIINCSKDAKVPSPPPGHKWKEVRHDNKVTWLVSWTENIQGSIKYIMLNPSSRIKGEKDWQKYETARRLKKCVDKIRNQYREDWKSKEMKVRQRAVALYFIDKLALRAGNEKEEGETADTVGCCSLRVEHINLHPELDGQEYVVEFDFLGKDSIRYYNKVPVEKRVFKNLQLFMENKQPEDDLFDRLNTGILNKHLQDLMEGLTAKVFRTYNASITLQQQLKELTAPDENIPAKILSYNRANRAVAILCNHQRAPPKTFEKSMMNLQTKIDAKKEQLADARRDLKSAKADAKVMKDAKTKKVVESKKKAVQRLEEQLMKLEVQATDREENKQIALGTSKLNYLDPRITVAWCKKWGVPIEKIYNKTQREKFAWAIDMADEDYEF
- assayDetails: Inhibition of human recombinant topoisomerase-1 assessed as conversion of super-coiled plasmid DNA pBR322 to relaxed DNA at 100 uM after 30 mins by ethidium bromide staining-based agarose gel electrophoresis (reference value: 45.2%)
quantityMeasured: inhibition

Would you please look over these solved cases?
• c1coc(-c2cc(-c3cccs3)nc3c2Cc2ccccc2-3)c1 = 76.3%
• c1ccc(-c2cc(-c3ccco3)c3c(n2)-c2ccccc2C3)nc1 = 0.6%
• c1ccc(-c2cc(-c3ccccn3)c3c(n2)-c2ccccc2C3)nc1 = 6.2%

Which value of inhibition has been reported for `c1coc(-c2cc(-c3ccco3)c3c(n2)-c2ccccc2C3)c1` in the records? 38.2%

Which value of inhibition has been reported for `c1ccc(-c2cc(-c3ccco3)nc3c2Cc2ccccc2-3)cc1` in the records? 41.3%

Which value of inhibition has been reported for `c1ccc(-c2cc(-c3cccs3)c3c(n2)-c2ccccc2C3)nc1` in the records? 58.5%

Which value of inhibition has been reported for `c1ccc(-c2cc(-c3ccccn3)nc3c2Cc2ccccc2-3)cc1` in the records? 0%

Which value of inhibition has been reported for `c1ccc(-c2cc(-c3ccoc3)c3c(n2)-c2ccccc2C3)nc1` in the records? 8.6%

----------
- systemUnderTest: DNA topoisomerase 2-alpha (Homo sapiens) (UniProt P11388)
- Sequence (P11388 whole entry): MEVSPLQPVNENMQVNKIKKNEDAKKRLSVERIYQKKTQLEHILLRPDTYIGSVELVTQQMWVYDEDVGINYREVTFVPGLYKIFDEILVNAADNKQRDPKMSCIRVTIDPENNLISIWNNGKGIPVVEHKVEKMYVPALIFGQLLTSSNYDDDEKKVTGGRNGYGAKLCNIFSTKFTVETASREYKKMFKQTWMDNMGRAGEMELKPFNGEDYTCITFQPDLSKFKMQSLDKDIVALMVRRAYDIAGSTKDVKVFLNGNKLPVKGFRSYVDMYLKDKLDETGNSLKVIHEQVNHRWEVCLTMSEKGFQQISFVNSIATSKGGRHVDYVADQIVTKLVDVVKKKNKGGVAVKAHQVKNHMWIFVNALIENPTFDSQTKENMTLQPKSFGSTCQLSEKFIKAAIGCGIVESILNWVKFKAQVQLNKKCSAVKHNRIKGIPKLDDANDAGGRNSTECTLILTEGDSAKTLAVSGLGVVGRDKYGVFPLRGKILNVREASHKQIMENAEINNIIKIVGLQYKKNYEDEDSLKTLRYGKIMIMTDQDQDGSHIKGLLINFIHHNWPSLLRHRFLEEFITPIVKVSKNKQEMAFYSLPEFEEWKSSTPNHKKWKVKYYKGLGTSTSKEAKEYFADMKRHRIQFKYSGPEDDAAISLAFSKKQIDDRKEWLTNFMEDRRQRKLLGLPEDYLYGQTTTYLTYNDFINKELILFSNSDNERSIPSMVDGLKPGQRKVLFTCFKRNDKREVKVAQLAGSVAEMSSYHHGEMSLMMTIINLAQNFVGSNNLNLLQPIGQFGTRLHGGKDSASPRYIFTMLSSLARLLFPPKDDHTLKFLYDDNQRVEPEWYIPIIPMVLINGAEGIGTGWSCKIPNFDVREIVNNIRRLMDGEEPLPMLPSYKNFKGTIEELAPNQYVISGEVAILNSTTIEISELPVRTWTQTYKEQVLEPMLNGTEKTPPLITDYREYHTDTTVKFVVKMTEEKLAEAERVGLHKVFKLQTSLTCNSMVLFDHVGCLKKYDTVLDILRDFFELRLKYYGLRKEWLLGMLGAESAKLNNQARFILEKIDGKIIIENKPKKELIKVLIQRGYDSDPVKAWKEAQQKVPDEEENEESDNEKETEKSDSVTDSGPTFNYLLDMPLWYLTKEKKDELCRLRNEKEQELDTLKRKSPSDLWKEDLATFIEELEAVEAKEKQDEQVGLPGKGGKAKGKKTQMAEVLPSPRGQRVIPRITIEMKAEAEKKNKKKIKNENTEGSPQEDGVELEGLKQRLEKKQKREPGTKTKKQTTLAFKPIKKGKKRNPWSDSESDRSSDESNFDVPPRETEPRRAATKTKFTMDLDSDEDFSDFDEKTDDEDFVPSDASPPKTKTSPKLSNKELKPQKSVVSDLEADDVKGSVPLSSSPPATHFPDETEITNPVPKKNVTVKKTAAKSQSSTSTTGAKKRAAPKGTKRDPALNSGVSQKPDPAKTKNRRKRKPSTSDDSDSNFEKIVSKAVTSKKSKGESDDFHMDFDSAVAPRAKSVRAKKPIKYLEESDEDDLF
- assayDetails: Inhibition of human recombinant topoisomerase-2 alpha assessed as conversion of super-coiled plasmid DNA pBR322 to relaxed DNA at 20 uM after 30 mins by ethidium bromide staining-based agarose gel electrophoresis (reference value: 42.1%)
quantityMeasured: inhibition (%)
The answer is to be given in %; state only the numeric part.

• c1ccc2c(c1)Cc1c(-c3ccoc3)cc(-c3ccsc3)nc1-2 = 10.9
• c1coc(-c2cc(-c3cccs3)c3c(n2)-c2ccccc2C3)c1 = 79.6
• c1coc(-c2cc(-c3ccsc3)c3c(n2)-c2ccccc2C3)c1 = 93

Which value of inhibition has been reported for `c1coc(-c2cc(-c3ccsc3)nc3c2Cc2ccccc2-3)c1` in the records? 68.5

Which value of inhibition has been reported for `c1csc(-c2cc(-c3ccoc3)c3c(n2)-c2ccccc2C3)c1` in the records? 66.7

----------
- systemUnderTest: DNA topoisomerase 2-alpha (Homo sapiens)
- assayDetails: Inhibition of human recombinant topoisomerase-2 alpha assessed as conversion of super-coiled plasmid DNA pBR322 to relaxed DNA at 100 uM after 30 mins by ethidium bromide staining-based agarose gel electrophoresis (reference value: 32.4%)
quantityMeasured: inhibition

Would you please look over these solved cases?
- c1ccc(-c2cc(-c3ccccn3)nc3c2Cc2ccccc2-3)cc1: 12.3%
- c1ccc(-c2cc(-c3ccco3)nc3c2Cc2ccccc2-3)cc1: 18.7%
- c1coc(-c2cc(-c3ccco3)c3c(n2)-c2ccccc2C3)c1: 44.6%

Which value of inhibition has been reported for `c1ccc(-c2cc(-c3ccco3)c3c(n2)-c2ccccc2C3)nc1` in the records? 17.7%

----------
- systemUnderTest: DNA topoisomerase 2-alpha (Homo sapiens) (UniProt P11388)
- assayDetails: Inhibition of human recombinant topoisomerase-2 alpha assessed as conversion of super-coiled plasmid DNA pBR322 to relaxed DNA at 20 uM after 30 mins by ethidium bromide staining-based agarose gel electrophoresis (reference value: 46.7%)
The reader will find reported inhibition values listed item by item below.
The answer is to be given in %; state only the numeric part.

Would you please look over these solved cases?
• c1ccc(-c2cc(-c3ccsc3)nc3c2Cc2ccccc2-3)cc1 = 0
• c1ccc2c(c1)Cc1c(-c3ccsc3)cc(-c3ccsc3)nc1-2 = 0
• c1ccc(-c2cc(-c3cccs3)nc3c2Cc2ccccc2-3)cc1 = 0

Which value of inhibition has been reported for `c1coc(-c2cc(-c3ccoc3)c3c(n2)-c2ccccc2C3)c1` in the records? 0

Which value of inhibition has been reported for `c1csc(-c2cc(-c3ccsc3)c3c(n2)-c2ccccc2C3)c1` in the records? 0

Which value of inhibition has been reported for `c1ccc(-c2cc(-c3ccco3)nc3c2Cc2ccccc2-3)nc1` in the records? 100
